From: the supplement of paper PMC10037445

# NF-kB SEAP reporter activity values compiled below
- Test system: RAW-Dual
- ASSAY_TEXT: NF-kB SEAP reporter activity, fold change vs agonist alone; cytotoxicity flag (confluency mask): not cytotoxic; higher = enhanced NF-kB activity
- TEST_PARAMETERS: agonist: ODN 1826 (TLR9) 0.5 ug/mL
The full ranking holds about 2,900 compounds; the median of “NF-kB SEAP reporter activity, fold change vs agonist alone” is about 0.99, and the highest 2% start at about 2.6. The full list was thinned out, with the highest values kept by preference.
READOUT_LABEL: NF-kB SEAP reporter activity

- NS(=O)(=O)NCCNc1nonc1C(=Nc1ccc(F)c(Br)c1)NO (library stock concentration (final ~1000-fold dilution): 10 mM): 0.936
- O=C(O)CCN1C(=O)C(=Cc2ccc(-c3ccc([N+](=O)[O-])cc3)o2)SC1=S (library stock concentration (final ~1000-fold dilution): 10 mM): 0.649
- CCOC(=O)C(CCc1ccccc1)NC1CSC(c2cccs2)CN(CC(=O)O)C1=O.Cl (stereo unspecified) (library stock concentration (final ~1000-fold dilution): 10 mM): 1.04
- CNC(=O)C(Cc1c[nH]c2ccccc12)NC(=O)C(CC(=O)NO)CC(C)C (stereo unspecified) (library stock concentration (final ~1000-fold dilution): 10 mM): 0.999
- CC(C)n1nc(-c2cc3cc(O)ccc3[nH]2)c2c(N)ncnc21 (library stock concentration (final ~1000-fold dilution): 10 mM): 0.998
- O=P(O)(O)Oc1cccc2ccccc12 (library stock concentration (final ~1000-fold dilution): 10 mM): 0.917
- CCn1c2ccccc2c2cc(-n3nncc3-c3ccccc3)ccc21 (library stock concentration (final ~1000-fold dilution): 10 mM): 1.82
- CC(C)n1nc(-c2ccc(NC(=O)Nc3cc(C(F)(F)F)ccc3F)cc2)c2c(N)ncnc21 (library stock concentration (final ~1000-fold dilution): 10 mM): 0.196
- CC(C)=CCCC(C)(OC1OC(CO)C(O)C(O)C1O)C1CCC2(C)C1C(O)CC1C3(C)CCC(OC4OC(CO)C(O)C(O)C4OC4OC(CO)C(O)C(O)C4O)C(C)(C)C3CCC12C (stereo unspecified) (library stock concentration (final ~1000-fold dilution): 10 mM): 1.11
- CC(C)n1nc(-c2ccc3oc(N)nc3c2)c2c(N)ncnc21 (library stock concentration (final ~1000-fold dilution): 10 mM): 1.69
- CC(=O)O.NCc1ccc(S(N)(=O)=O)cc1 (library stock concentration (final ~1000-fold dilution): 10 mM): 1.01

* * *

- Test system: RAW-Dual
- ASSAY_TEXT: NF-kB SEAP reporter activity, fold change vs agonist alone; cytotoxicity flag (confluency mask): not cytotoxic; higher = enhanced NF-kB activity
- TEST_PARAMETERS: agonist: LPS (TLR4) 0.1 ug/mL
The full ranking holds about 2,900 compounds; the median of “NF-kB SEAP reporter activity, fold change vs agonist alone” is about 0.99, and the highest 2% start at about 2.6. Many of the other results were omitted from the sample, so the highest values are more common in it than they were.
Classify as follows. Reported NF-kB SEAP reporter activity greater than or equal to 0.8: y. Reported NF-kB SEAP reporter activity below: n.

• Nc1nc(=O)n(C2CSC(CO)O2)cc1F (stereo unspecified) (library stock concentration (final ~1000-fold dilution): 10 mM) = y
• COc1cc(C(=O)O)ccc1O (library stock concentration (final ~1000-fold dilution): 10 mM) = y
• Cc1n[nH]c2ccc(-c3cncc(OCC(N)Cc4ccccc4)c3)cc12 (stereo unspecified) (library stock concentration (final ~1000-fold dilution): 10 mM) = n
• c1ccc(-c2n[nH]cc2-c2ccnc3ccccc23)nc1 (library stock concentration (final ~1000-fold dilution): 2 mM) = y
• CC(=O)OC(CC=C(C)C)C1=CC(=O)c2c(O)ccc(O)c2C1=O (stereo unspecified) (library stock concentration (final ~1000-fold dilution): 2 mM) = n
